Taken from ChEMBL document CHEMBL4145468.

- Tested on: LNCaP
- experiment_summary: Antiproliferative activity against human LNCAP cells after 72 hrs by MTT assay
- Type: functional, cell-based
measurement_label: IC50 (µM)
Report the value in µM with no unit label.

Below, each entry is followed by its recorded IC50 result.
CCOc1nc([C@H]2CC[C@H]3[C@@H]4CC=C5C[C@@H](O)CC[C@]5(C)[C@H]4CC[C@]23C)cc(-c2cccnc2)c1C#N
5.18
CCOc1cc(-c2cccnc2)cc([C@H]2CC[C@H]3[C@@H]4CC=C5C[C@@H](OC(C)=O)CC[C@]5(C)[C@H]4CC[C@]23C)n1
27.9
C[C@]12CC[C@H](O)CC1=CC[C@@H]1[C@@H]2CC[C@]2(C)C(c3cccnc3)=CC[C@@H]12
3.29

Please find the next compound below.
Record summary for CCOc1cc(-c2cccnc2)cc([C@H]2CC[C@H]3[C@@H]4CC=C5C[C@@H](O)CC[C@]5(C)[C@H]4CC[C@]23C)n1 : reported IC50 = 8.48
